Molecular target: GALR2 (Homo sapiens, UniProt O43603)
Construct: purchased Promega (in-house HiBiT-GPCR construct library, NanoBRET)
Sequence (O43603 1-387): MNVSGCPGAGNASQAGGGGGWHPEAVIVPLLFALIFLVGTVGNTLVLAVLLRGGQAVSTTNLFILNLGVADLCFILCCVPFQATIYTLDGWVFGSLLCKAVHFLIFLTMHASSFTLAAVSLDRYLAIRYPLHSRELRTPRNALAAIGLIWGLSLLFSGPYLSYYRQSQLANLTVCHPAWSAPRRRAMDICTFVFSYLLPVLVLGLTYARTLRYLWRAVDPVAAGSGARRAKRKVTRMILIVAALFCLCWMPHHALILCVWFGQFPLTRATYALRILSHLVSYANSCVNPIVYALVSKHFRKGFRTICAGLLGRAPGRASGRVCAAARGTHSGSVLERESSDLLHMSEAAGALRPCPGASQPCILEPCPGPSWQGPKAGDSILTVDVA
Assay: NanoBRET screen HiBiT-GALR2 in HEK293
Assay type: binding
Settings: GALR2; tracer 1μM
Everything with NanoBRET Fold Response lower than 1 is not satisfied; everything else, including exactly 1, is satisfied.

[in] API: above_or_equal(metric=NanoBRET Fold Response, cutoff=1) for item CCCn1c(=O)c2[nH]c(-c3ccc(OCC(=O)NCCNC(=O)CCOCCNC(=O)c4ccc(CNC(=O)CCc5ccc6n5[B-](F)(F)[N+]5=C(c7ccc[nH]7)C=CC5=C6)cc4)cc3)nc2n(CCC)c1=O
[out] not satisfied

[in] Okay, and Cc1nc2n(c(=O)c1CCN1CCC(c3noc4cc(F)ccc34)CC1)CCCC2OC(=O)NCCOCCOCCOCCOCCNC(=O)CCc1ccc2n1[B-](F)(F)[N+]1=C(c3ccc[nH]3)C=CC1=C2 (centres unmarked) ?
[out] not satisfied

[in] Can you check CC(C)N(CC[C@H](c1ccccc1)c1cc(CCNC(=O)CCOCCOCCOCCOCCNC(=O)CCc2ccc3n2[B-](F)(F)[N+]2=C(c4ccc[nH]4)C=CC2=C3)ccc1O)C(C)C next?
[out] satisfied

----------
For each record, write down the corresponding NanoBRET Fold Response.
target: PTGER4 (Homo sapiens, UniProt P35408); construct: purchased Promega (in-house HiBiT-GPCR construct library, NanoBRET); test: NanoBRET screen HiBiT-PTGER4 in HEK293; assay type: binding; details: PTGER4; tracer 0.1μM
Sequence (P35408 whole entry): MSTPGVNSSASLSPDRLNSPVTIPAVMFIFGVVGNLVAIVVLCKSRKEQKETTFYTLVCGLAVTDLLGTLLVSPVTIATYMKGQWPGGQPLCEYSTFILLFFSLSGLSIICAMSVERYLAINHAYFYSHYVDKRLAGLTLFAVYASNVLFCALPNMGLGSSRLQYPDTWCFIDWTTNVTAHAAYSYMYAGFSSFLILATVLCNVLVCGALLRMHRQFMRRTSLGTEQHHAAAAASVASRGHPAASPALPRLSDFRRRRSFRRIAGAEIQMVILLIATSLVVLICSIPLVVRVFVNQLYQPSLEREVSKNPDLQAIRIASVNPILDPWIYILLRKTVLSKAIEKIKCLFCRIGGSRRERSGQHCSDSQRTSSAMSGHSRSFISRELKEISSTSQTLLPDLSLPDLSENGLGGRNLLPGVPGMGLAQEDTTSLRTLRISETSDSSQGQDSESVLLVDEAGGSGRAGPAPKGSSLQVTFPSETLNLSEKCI
Please reply with the number alone, leaving off any unit.

[in] Item O=C(CCc1ccc2n1[B-](F)(F)[N+]1=C(c3ccc[nH]3)C=CC1=C2)NCCOCCOCCNC(=O)OCCOCCN1CCN(C2=Nc3ccccc3Sc3ccccc32)CC1 with PTGER4 (Homo sapiens, UniProt P35408) - NanoBRET Fold Response?
[out] 1.02

[in] Param item: CC(C)N(CC[C@H](c1ccccc1)c1cc(CCNC(=O)c2ccc(CNC(=O)CCc3ccc4n3[B-](F)(F)[N+]3=C(c5ccc[nH]5)C=CC3=C4)cc2)ccc1O)C(C)C
[out] 1.02

[in] Now the same for O=C(CCOCCOCCOCCOCCNC(=O)CCc1ccc2n1[B-](F)(F)[N+]1=C(c3ccc[nH]3)C=CC1=C2)NCCCN1CCN(C2=Nc3ccccc3Oc3ccc(Cl)cc32)CC1
[out] 0.97

[in] # repeat for N#CN=C(NCCCOc1cccc(CN2CCCCC2)c1)NCCNC(=O)CCOCCOCCOCCOCCNC(=O)CCc1ccc2n1[B-](F)(F)[N+]1=C(c3ccc[nH]3)C=CC1=C2
[out] 1.05

[in] Then CC(C)N(CC[C@H](c1ccccc1)c1cc(CCNC(=O)CCOCCOCCOCCOCCNC(=O)CCc2ccc3n2[B-](F)(F)[N+]2=C(c4ccc[nH]4)C=CC2=C3)ccc1O)C(C)C ?
[out] 1.00
